Tested on: 786-0 renal
ASSAY_TEXT: NCI-60 one-dose screen, 48 h (100 = growth as untreated, 0 = no growth, -100 = all killed)
COND: 10 µM unless noted
Compounds without any hit were thinned out: in the full panel of roughly 83,000, 20% have a hit.
READOUT_KIND: growth (%)

- COMPOUND: "C=CCc1cc(C)ccc1NC(C(=O)NCC(=O)OC)c1ccccc1 (stereo unspecified)"
  MEASUREMENT_TARGET: "786-0 renal"
  READOUT_KIND: "growth"
  NUMBER: 94.1
- COMPOUND: "CCCCCCCCCCCCCCCCCC1OCC(COC(=O)O[C@]2(CC)C(=O)OCc3c2cc2n(c3=O)Cc3cc4ccccc4nc3-2)O1 (stereo partly specified)"
  MEASUREMENT_TARGET: "786-0 renal"
  READOUT_KIND: "growth"
  NUMBER: 86.7
- COMPOUND: "COc1ccc(-c2cnc3ccccc3n2)cc1"
  MEASUREMENT_TARGET: "786-0 renal"
  READOUT_KIND: "growth"
  NUMBER: 95.4
- COMPOUND: "CCN1C(=O)N(CC)C2Nn3c(s/c(=C4\\C(=O)N(CC(C)C)c5ccccc54)c3=O)=NC21 (stereo unspecified)"
  MEASUREMENT_TARGET: "786-0 renal"
  READOUT_KIND: "growth"
  NUMBER: 35.3
- COMPOUND: "COC1=C(C)C(=O)c2c(c(CCCl)c3n2CCC3OC(C)=O)C1=O (stereo unspecified)"
  MEASUREMENT_TARGET: "786-0 renal"
  READOUT_KIND: "growth"
  NUMBER: -32.4
- COMPOUND: "O=c1ccc(N=Nc2ccc([N+](=O)[O-])cc2)ccc1O"
  MEASUREMENT_TARGET: "786-0 renal"
  READOUT_KIND: "growth"
  NUMBER: 42.3
- COMPOUND: "CN1CCN(Cc2ccc(NC(=O)c3ccc(C(C)(C)C)c(C#Cc4cnc5cccnn45)c3)cc2C(F)(F)F)CC1"
  MEASUREMENT_TARGET: "786-0 renal"
  READOUT_KIND: "growth"
  NUMBER: -85.4
- COMPOUND: "CCOC(=O)c1sc2ncc(-c3ccc(C)cc3)n2c1C"
  MEASUREMENT_TARGET: "786-0 renal"
  READOUT_KIND: "growth"
  NUMBER: 106
- COMPOUND: "CN1C(=O)CNC(=O)[C@H](NC(=O)c2nc3ccccc3cc2O)CSSC[C@H]1C(=O)NCCc1nc2ccccc2cc1O"
  MEASUREMENT_TARGET: "786-0 renal"
  READOUT_KIND: "growth"
  NUMBER: 112
- COMPOUND: "COc1ccc(-c2cc3c4c(nc5ccccc5c4c2)CC(c2cc(OC)c(OC)c(OC)c2)O3)cc1 (stereo unspecified)"
  MEASUREMENT_TARGET: "786-0 renal"
  READOUT_KIND: "growth"
  NUMBER: -56.1
- COMPOUND: "CCCCNC(=O)Oc1ccc(/C(=C(\\C)c2ccc(Cl)cc2)c2ccc(OCCN(CC)CC)cc2)cc1"
  MEASUREMENT_TARGET: "786-0 renal"
  READOUT_KIND: "growth"
  NUMBER: 59.2
- COMPOUND: "O=c1cc(SCc2ccccc2)nc[nH]1"
  MEASUREMENT_TARGET: "786-0 renal"
  READOUT_KIND: "growth"
  NUMBER: 95
- COMPOUND: "CC1=C(C)C(=O)C(Nc2cccc(C(=O)OC(C)(C)C)c2)=C(Br)C1=O"
  MEASUREMENT_TARGET: "786-0 renal"
  READOUT_KIND: "growth"
  NUMBER: 96.2
- COMPOUND: "Cc1oc2nc[nH]c(=O)c2c1C(=O)/C=C/c1ccc(Br)cc1"
  MEASUREMENT_TARGET: "786-0 renal"
  READOUT_KIND: "growth"
  NUMBER: 11.5
- COMPOUND: "Cc1cc(Cl)ccc1NS(=O)(=O)c1ccc(-c2cnc(C3CC3)o2)cc1"
  MEASUREMENT_TARGET: "786-0 renal"
  READOUT_KIND: "growth"
  NUMBER: 28.6
- COMPOUND: "COc1ccc2sc3c(NCCCNCCO)nc4ccccc4c3c(=O)c2c1"
  MEASUREMENT_TARGET: "786-0 renal"
  READOUT_KIND: "growth"
  NUMBER: 63
- COMPOUND: "N#Cc1ccc(NC(=O)c2sc3nc4c(cc3c2N)C(=O)CCC4)cc1"
  MEASUREMENT_TARGET: "786-0 renal"
  READOUT_KIND: "growth"
  NUMBER: 97.8
- COMPOUND: "CCCCN(C)N=Nc1ccc(C(N)=O)cc1"
  MEASUREMENT_TARGET: "786-0 renal"
  READOUT_KIND: "growth"
  NUMBER: 106
- COMPOUND: "O=C(Nc1ccc(OS(=O)(=O)c2ccc(F)cc2)cc1)c1ccc(Cl)cc1"
  MEASUREMENT_TARGET: "786-0 renal"
  READOUT_KIND: "growth"
  NUMBER: 104
- COMPOUND: "O=C(O)CCC(=O)Nc1nnc(-c2ccccc2)s1"
  MEASUREMENT_TARGET: "786-0 renal"
  READOUT_KIND: "growth"
  NUMBER: 92.9
- COMPOUND: "O=C(N/N=C/[C@H](O)[C@H](O)[C@H](O)CO)c1ccc(NC(=O)c2cccnc2)cc1"
  MEASUREMENT_TARGET: "786-0 renal"
  READOUT_KIND: "growth"
  NUMBER: 105
- COMPOUND: "O=C(Nc1ccc(F)cc1F)c1cc(F)ccc1O"
  MEASUREMENT_TARGET: "786-0 renal"
  READOUT_KIND: "growth"
  NUMBER: 13.3
- COMPOUND: "O=c1c2cc(F)ccc2sc2c(N3CCCCC3)nc3ccccc3c12"
  MEASUREMENT_TARGET: "786-0 renal"
  READOUT_KIND: "growth"
  NUMBER: 95.8
- COMPOUND: "CCC(=O)Nc1ccc(-c2nc(-c3cccc(OC)c3)c(-c3ccnc(Br)c3)[nH]2)cc1"
  MEASUREMENT_TARGET: "786-0 renal"
  READOUT_KIND: "growth"
  NUMBER: 40.8
- COMPOUND: "CC1CN(C2CCCCC2)C(=S)N(c2ccccc2)C1=O (stereo unspecified)"
  MEASUREMENT_TARGET: "786-0 renal"
  READOUT_KIND: "growth"
  NUMBER: 92.2
- COMPOUND: "Cc1cc(O)c(C2=NN(c3ccc(S(N)(=O)=O)cc3)C(c3ccccc3O)C2)cc1Cl (stereo unspecified)"
  MEASUREMENT_TARGET: "786-0 renal"
  READOUT_KIND: "growth"
  NUMBER: -55.7
- COMPOUND: "CNc1ccc(Nc2cccc(C)c2)c2c1C(=O)c1ccccc1C2=O"
  MEASUREMENT_TARGET: "786-0 renal"
  READOUT_KIND: "growth"
  NUMBER: 100
- COMPOUND: "COc1cc(CCC[P+](c2ccccc2)(c2ccccc2)c2ccccc2)c(OC)c(OC)c1OC"
  MEASUREMENT_TARGET: "786-0 renal"
  READOUT_KIND: "growth"
  NUMBER: 75.3
- COMPOUND: "COc1cc(CCC[P+](c2ccccc2)(c2ccccc2)c2ccccc2)c(OC)c2c1OCO2"
  MEASUREMENT_TARGET: "786-0 renal"
  READOUT_KIND: "growth"
  NUMBER: 31.2
- COMPOUND: "COC(=O)Nc1ccc(-c2nc(-c3cccc(OC)c3)c(-c3ccnc(Br)c3)[nH]2)cc1"
  MEASUREMENT_TARGET: "786-0 renal"
  READOUT_KIND: "growth"
  NUMBER: 37.4
- COMPOUND: "COc1ccc(/C=N/Nc2cc(=O)[nH]c3ccc(Cl)cc23)cc1"
  MEASUREMENT_TARGET: "786-0 renal"
  READOUT_KIND: "growth"
  NUMBER: 62.1
- COMPOUND: "O=c1c2cccc(Cl)c2sc2c(NCCCNCCO)nc3ccccc3c12"
  MEASUREMENT_TARGET: "786-0 renal"
  READOUT_KIND: "growth"
  NUMBER: 45.6
- COMPOUND: "CCCCn1c(=O)c(-c2cc(-c3ccc(Cl)cc3)nc(-c3ccc(Cl)cc3)c2)cc2cc(C)ccc21"
  MEASUREMENT_TARGET: "786-0 renal"
  READOUT_KIND: "growth"
  NUMBER: 102
- COMPOUND: "COc1ccc(N2C(=O)C(Oc3ccccc3)C2c2ccc(C)cc2)cc1 (stereo unspecified)"
  MEASUREMENT_TARGET: "786-0 renal"
  READOUT_KIND: "growth"
  NUMBER: 98.5
- COMPOUND: "COC(=O)c1ccc2[nH]c(O)c(C(=Nc3ccc(N(C)C(=O)CN4CCN(C)CC4)cc3)c3ccccc3)c2c1"
  MEASUREMENT_TARGET: "786-0 renal"
  READOUT_KIND: "growth"
  NUMBER: 1.61
- COMPOUND: "COc1ccc(-c2conc2-c2ccccc2)cc1"
  MEASUREMENT_TARGET: "786-0 renal"
  READOUT_KIND: "growth"
  NUMBER: 27
- COMPOUND: "C(=N/Nc1ncnc2nc[nH]c12)/c1ccccn1"
  MEASUREMENT_TARGET: "786-0 renal"
  READOUT_KIND: "growth"
  NUMBER: 21.4
- COMPOUND: "COc1cc2cc(Oc3ccc(NC(=O)Nc4ccc(Cl)c(C(F)(F)F)c4)cc3)c(C)nc2cc1OCCN1CCOCC1"
  MEASUREMENT_TARGET: "786-0 renal"
  READOUT_KIND: "growth"
  NUMBER: 29.2
- COMPOUND: "Cn1cc(C(=O)c2nc(-c3cn(C)c4ccc(F)cc34)no2)c2cc(F)ccc21"
  MEASUREMENT_TARGET: "786-0 renal"
  READOUT_KIND: "growth"
  NUMBER: 107
- COMPOUND: "Cc1c(C(=O)NCCCc2ccccc2)sc2ncc(-c3ccc(Br)cc3)n12"
  MEASUREMENT_TARGET: "786-0 renal"
  READOUT_KIND: "growth"
  NUMBER: 100
- COMPOUND: "O=C(/C=C/c1cccc2ccccc12)c1ccc(NC(=O)c2ccccc2CN2C(=O)c3ccccc3C2=O)cc1"
  MEASUREMENT_TARGET: "786-0 renal"
  READOUT_KIND: "growth"
  NUMBER: 97
